Taken from patent US8129396B2.

IC50, Aurora A kinase (Homo sapiens, UniProt O14965): measured values
Form entry: value (nM) — number only.

## Input Quick check: IC50 of NC(=O)/C(=C1\Nc2ccc(CCc3cccnc3)cc2S1)c1nccc(C(F)(F)F)n1 [Compound 99A] ?
## Output 20

## Input Try this compound next: Cc1ccnc(/C(C(N)=O)=C2/Nc3ccccc3S2)n1 [Compound 18A]
## Output 200

## Input // query: Cn1cncc1CCc1ccc2c(c1)S/C(=C(/C(N)=O)c1nccc(C(F)(F)F)n1)N2 [Compound 98A]
## Output 6

## Input Also CCN(CC)CC(=O)N(CC)c1ccc2c(c1)N/C(=C(/C(N)=O)c1nccc(C(F)(F)F)n1)N2 [Compound 139A] , if possible.
## Output 20
